The measured values listed here are drawn from the supplement of paper PMC9950053.

- System: Danio rerio larvae (5 dpf)
- METHOD_NOTES: combined optomotor response (time in upper well half, down vs up moving lines, periods 7-14) minus DMSO control (percentage points); higher = stronger optomotor response than DMSO larvae
- APPLIED_CONDITIONS: 10 µM; exposure time: 3 h pre-incubation + 3 h imaging
Counter-ions that a name gives are not always drawn.
Tag: class 1 if measured combined optomotor response is not below -2, class 0 if it is.

Task item: Assess whether reported combined optomotor response for `Cc1cc2c(s1)Nc1ccccc1N=C2N1CCN(C)CC1` sits at -2 or higher.
Reply: class 1

Task item: Same read-out for CC(=O)Oc1cc2c(s1)CCN(C(C(=O)C1CC1)c1ccccc1F)C2 (stereo unspecified) ?
Reply: class 1

Task item: Same read-out for COCCc1ccc(OCC(O)CNC(C)C)cc1 (stereo unspecified) [Metoprolol tartrate] ?
Reply: class 1

Task item: Same read-out for CN(C)C(=N)NC(=N)N [Metformin hydrochloride] ?
Reply: class 1

Task item: Same read-out for `CNC(=O)c1cc(Oc2ccc(NC(=O)Nc3ccc(Cl)c(C(F)(F)F)c3)cc2)ccn1` ?
Reply: class 1

Task item: Same read-out for N#Cc1ccc2[nH]cc(CCCCN3CCN(c4ccc5oc(C(N)=O)cc5c4)CC3)c2c1 [Vilazodone hydrochloride] ?
Reply: class 0

----------
- Test system: Danio rerio larvae (5 dpf)
- METHOD_NOTES: excitability (activity period 17 minus period 16, 1-s interval sound) minus DMSO control (percentage points); higher = more acoustic excitability than DMSO larvae
- APPLIED_CONDITIONS: 10 µM; exposure time: 3 h pre-incubation + 3 h imaging
Counter-ions that a name gives are not always drawn.
Assignment: determine reported excitability for the given compounds.
Just the number, please, no unit after it.

Task item: Need excitability of `O=C1CCc2cc(OCCCCc3nnnn3C3CCCCC3)ccc2N1` , thanks.
Reply: 9.2

Task item: Same read-out for Cc1ccsc1C(=CCCN1CCC[C@@H](C(=O)O)C1)c1sccc1C [Tiagabine hydrochloride] ?
Reply: -6.75

Task item: Same read-out for COCCCOc1cc(C[C@@H](C[C@H](N)[C@@H](O)C[C@H](C(=O)NCC(C)(C)C(N)=O)C(C)C)C(C)C)ccc1OC [Aliskiren hemifumarate] ?
Reply: 12.7

Task item: Same read-out for CC/C(=C(\c1ccccc1)c1ccc(OCCN(C)C)cc1)c1ccccc1 [Tamoxifen citrate] ?
Reply: 4.81

Task item: Same read-out for Nc1nc(NC2CC2)c2ncn([C@H]3C=C[C@@H](CO)C3)c2n1 [Abacavir hemisulfate] ?
Reply: 0.611

Task item: Same read-out for `CCc1c2c(nc3ccc(OC(=O)N4CCC(N5CCCCC5)CC4)cc13)-c1cc3c(c(=O)n1C2)COC(=O)[C@]3(O)CC` ?
Reply: 8.99

Task item: Same read-out for `CCCCC(=O)N(Cc1ccc(-c2ccccc2-c2nnn[nH]2)cc1)[C@H](C(=O)O)C(C)C` ?
Reply: -1.67

Task item: Same read-out for `COc1ccc(-c2ccc3cc(C(=O)O)ccc3c2)cc1C12CC3CC(CC(C3)C1)C2` ?
Reply: 0.726

----------
- Tested on: Danio rerio larvae (5 dpf)
- METHOD_NOTES: combined upward orientation toward moving lines (periods 7-14) minus DMSO control (percentage points); higher = more orientation with moving lines than DMSO larvae
- APPLIED_CONDITIONS: 10 µM; exposure time: 3 h pre-incubation + 3 h imaging
Where a name gives a salt, the structure may show the parent alone.
Assignment: determine reported combined upward orientation toward moving lines for the given molecules.
Just the number, please, no unit after it.

Task item: Need combined upward orientation toward moving lines of NS(=O)(=O)c1cc2c(cc1Cl)NC(C1CC3C=CC1C3)NS2(=O)=O (centres undefined) [Cyclothiazide] , thanks.
Reply: -2.57

Task item: Same read-out for `CC(=O)Nc1ccc(O)cc1` ?
Reply: -1.22

Task item: Same read-out for `CNC(=O)c1cc(Oc2ccc(NC(=O)Nc3ccc(Cl)c(C(F)(F)F)c3)cc2)ccn1` ?
Reply: -23.2

Task item: Same read-out for Clc1ccc2nsnc2c1NC1=NCCN1 [Tizanidine hydrochloride] ?
Reply: -5.19

----------
Assignment: determine reported combined optomotor response for the given compounds.
- Tested on: Danio rerio larvae (5 dpf)
- METHOD_NOTES: combined optomotor response (time in upper well half, down vs up moving lines, periods 7-14) minus DMSO control (percentage points); higher = stronger optomotor response than DMSO larvae
- APPLIED_CONDITIONS: 10 µM; exposure time: 3 h pre-incubation + 3 h imaging
Where a name gives a salt, the structure may show the parent alone.
Just the number, please, no unit after it.

Task item: Need combined optomotor response of NS(=O)(=O)Cc1noc2ccccc12 [Zonisamide] , thanks.
Reply: 7

Task item: Same read-out for `OCCN(CCO)c1nc(N2CCCCC2)c2nc(N(CCO)CCO)nc(N3CCCCC3)c2n1` ?
Reply: -1.19

Task item: Same read-out for `Nc1ncn([C@H]2C[C@H](O)[C@@H](CO)O2)c(=O)n1` ?
Reply: 3.77

Task item: Same read-out for Nc1ccn([C@@H]2O[C@H](CO)[C@@H](O)C2(F)F)c(=O)n1 [Gemcitabine hydrochloride] ?
Reply: 1.86

Task item: Same read-out for `CC(C)c1ccc2oc3nc(N)c(C(=O)O)cc3c(=O)c2c1` ?
Reply: 4.64

Task item: Same read-out for Clc1ccc(COC(Cn2ccnc2)c2ccc(Cl)cc2Cl)c(Cl)c1 (configuration not stated) [Miconazole nitrate] ?
Reply: -12.3

Task item: Same read-out for `Nc1cc(N2CCCCC2)nc(N)[n+]1[O-]` ?
Reply: -1.34

Task item: Same read-out for CC(=O)O[C@]1(C(C)=O)CC[C@H]2[C@@H]3C=C(C)C4=CC(=O)CC[C@]4(C)[C@H]3CC[C@@]21C [Megestrol Acetate] ?
Reply: -8.35

Task item: Same read-out for `COC(c1ccccc1)(c1ccccc1)[C@H](Oc1nc(C)cc(C)n1)C(=O)O` ?
Reply: 0.559

Task item: Same read-out for Cc1cccc(CN2CCN(C(c3ccccc3)c3ccc(Cl)cc3)CC2)c1 (configuration not stated) [Meclizine dihydrochloride] ?
Reply: -13.9

Task item: Same read-out for CC(c1cc2ccccc2s1)N(O)C(N)=O (configuration not stated) ?
Reply: -0.859

Task item: Same read-out for `C[C@H]1C[C@@H]2[C@H]([C@@H](O)C[C@@]3(C)[C@H]2CC[C@]3(O)C(=O)CO)[C@@]2(C)C=CC(=O)C=C12` ?
Reply: 8.85

Task item: Same read-out for Cc1ccccc1C(=O)Nc1ccc(C(=O)N2CCCC(O)c3cc(Cl)ccc32)c(C)c1 (configuration not stated) ?
Reply: 4.13

Task item: Same read-out for `CC(C)(C#N)c1cc(Cn2cncn2)cc(C(C)(C)C#N)c1` ?
Reply: -1.87

Task item: Same read-out for `CC(C)c1nc(CN(C)C(=O)N[C@H](C(=O)N[C@@H](Cc2ccccc2)C[C@H](O)[C@H](Cc2ccccc2)NC(=O)OCc2cncs2)C(C)C)cs1` ?
Reply: 3.14

Task item: Same read-out for Cc1ccc(N(CC2=NCCN2)c2cccc(O)c2)cc1 [Phentolamine Mesylate] ?
Reply: 7.07

Task item: Same read-out for `Cc1cc(C2CCCCC2)n(O)c(=O)c1` ?
Reply: 5.45

----------
- System: Danio rerio larvae (5 dpf)
- METHOD_NOTES: startle (activity period 16 minus period 15, 20-s interval sound) minus DMSO control (percentage points); higher = stronger startle response than DMSO larvae
- APPLIED_CONDITIONS: 10 µM; exposure time: 3 h pre-incubation + 3 h imaging
Structures can show the parent of a compound that is named as a salt.
Class (required): determined from startle; valid ranges are L: < -5; M: ≥ -5 and < 2; H: ≥ 2

Task item: Determine which band this compound sits in: C[C@@H](O[C@H]1OCCN(Cc2n[nH]c(=O)[nH]2)[C@H]1c1ccc(F)cc1)c1cc(C(F)(F)F)cc(C(F)(F)F)c1 [Aprepitant]
Reply: L

Task item: Same read-out for CCc1ccc(CCOc2ccc(CC3SC(=O)NC3=O)cc2)nc1 (stereo not given) [Pioglitazone hydrochloride] ?
Reply: M

Task item: Same read-out for CC(CCc1ccc(O)cc1)NCCc1ccc(O)c(O)c1 (stereo not given) [Dobutamine hydrochloride] ?
Reply: M

Task item: Same read-out for Cc1ccsc1C(=CCCN1CCC[C@@H](C(=O)O)C1)c1sccc1C [Tiagabine hydrochloride] ?
Reply: H

Task item: Same read-out for O=C(O)CCCc1ccccc1 [Sodium 4-Phenylbutyrate] ?
Reply: L

Task item: Same read-out for CN1CCN(CCCN2c3ccccc3Sc3ccc(Cl)cc32)CC1 [Prochlorperazine dimaleate] ?
Reply: L

Task item: Same read-out for `CC(C)c1nc(CN(C)C(=O)N[C@H](C(=O)N[C@@H](Cc2ccccc2)C[C@H](O)[C@H](Cc2ccccc2)NC(=O)OCc2cncs2)C(C)C)cs1` ?
Reply: M

Task item: Same read-out for CCOc1ccccc1OCCN[C@H](C)Cc1ccc(OC)c(S(N)(=O)=O)c1 [Tamsulosin hydrochloride] ?
Reply: M

Task item: Same read-out for CC/C(=C(\c1ccccc1)c1ccc(OCCN(C)C)cc1)c1ccccc1 [Tamoxifen citrate] ?
Reply: M

Task item: Same read-out for COc1c(C)c2c(c(O)c1C/C=C(\C)CCC(=O)OCCN1CCOCC1)C(=O)OC2 [Mycophenolate mofetil] ?
Reply: H

Task item: Same read-out for CC(C)C(=O)OCC(=O)[C@@]12O[C@H](C3CCCCC3)O[C@@H]1C[C@H]1[C@@H]3CCC4=CC(=O)C=C[C@]4(C)[C@H]3[C@@H](O)C[C@@]12C [Ciclesonide] ?
Reply: L

Task item: Same read-out for `CCOC(=O)[C@H](CCc1ccccc1)N[C@@H](C)C(=O)N1[C@H](C(=O)O)C[C@@H]2CCC[C@@H]21` ?
Reply: M

Task item: Same read-out for `CCOC(=O)N1CCC(=C2c3ccc(Cl)cc3CCc3cccnc32)CC1` ?
Reply: H

Task item: Same read-out for COc1ccc(C[C@@H](C)NC[C@H](O)c2ccc(O)c(NC=O)c2)cc1 [Arformoterol tartrate] ?
Reply: L
